Overview of reported GI50 across a group of molecules:
- System: M14
- experimental details: NCI tumour cell line growth inhibition, 48 h
Active and inactive are the calls of the source. Rule as the data show it: active = GI50 up to about 1.1 µM and inactive = higher.
metric name: GI50

| molecule | metric name | result |
| --- | --- | --- |
| CC(=O)c1cccc(C)c1C(=O)O | GI50 | > 100 µM (inactive) |
| CCC1(O)C(=O)OCc2c1cc1n(c2=O)Cc2cc3ccc(CO)cc3nc2-1 (stereo unspecified) | GI50 | 3.59 µM (inactive) |
| Cc1ccc2c(O)cc(-c3ccc(Cl)cc3)nc2n1 | GI50 | 7.48 µM (inactive) |
| Cc1ccccc1C(=O)N/N=C/c1ccc(Sc2nccn2C)c([N+](=O)[O-])c1 | GI50 | > 100 µM (inactive) |
| COc1ccc2nc3n(c2c1)CCc1cc(OC)c(OC)cc1-3 | GI50 | 39.9 µM (inactive) |
| CN(C)CCCN1c2ccccc2CCc2cc([N+](=O)[O-])ccc21 | GI50 | 16.3 µM (inactive) |

The reported numbers originate from ChEMBL document CHEMBL1201862.
